Test system: C. albicans (NCYC 1467)
Type: cell-based
Bridge positions count the residues as written; N and C are the ends. Peptide text beside a SMILES is read from it.
I'd be grateful if you could share measured MIC for these entries.

GET /value?item= CC[C@H](C)[C@@H]1NC(=O)[C@H](CO)NC(=O)[C@H](CCCCN)NC(=O)[C@H]([C@@H](C)O)NC(=O)[C@H](Cc2c[nH]c3ccccc23)NC(=O)[C@@H](NC(=O)CNC(=O)[C@H](CCCNC(=N)N)NC(=O)[C@H](CC(C)C)NC(=O)[C@H](C)N)CSSC[C@@H](C(=O)N2CCC[C@H]2C(N)=O)NC(=O)[C@@H]2CCCN2C(=O)[C@H](CCCCN)NC(=O)[C@@H]2CCCN2C(=O)[C@@H]2CCCN2C1=O [PPF-BBI] (H-ALRGCWTKSIPPKPCP-NH2; disulfide 5-15) &field=MIC returns 512 µM

GET /value?item= CC[C@H](C)[C@@H]1NC(=O)[C@H](CO)NC(=O)[C@H](Cc2ccccc2)NC(=O)[C@H]([C@@H](C)O)NC(=O)[C@H](Cc2c[nH]c3ccccc23)NC(=O)[C@@H](NC(=O)CNC(=O)[C@H](CCCNC(=N)N)NC(=O)[C@H](CC(C)C)NC(=O)[C@H](C)N)CSSC[C@@H](C(=O)N2CCC[C@H]2C(N)=O)NC(=O)[C@@H]2CCCN2C(=O)[C@H](CCCCN)NC(=O)[C@@H]2CCCN2C(=O)[C@@H]2CCCN2C1=O [F^8-PPF-BBI] (H-ALRGCWTFSIPPKPCP-NH2; disulfide 5-15) &field=MIC returns >512 µM

GET /value?item= N=C(N)NCCC[C@H](NC(=O)[C@H](CCCNC(=N)N)NC(=O)[C@H](CCCNC(=N)N)NC(=O)[C@H](CCC(N)=O)NC(=O)[C@H](CCCNC(=N)N)NC(=O)[C@H](CCCNC(=N)N)NC(=O)[C@H](CCCCN)NC(=O)[C@H](CCCCN)NC(=O)[C@@H](N)CCCNC(=N)N)C(=O)O [Tat, reference compound] &field=MIC returns >512 µM

###

System: C. albicans (NCYC 1467)
Type: cell-based
Bridge positions count the residues as written; N and C are the ends. Peptide text beside a SMILES is read from it.
RESULT TYPE: MIC (µM)
Note: unit µM is implicit; provide only the numeric part.

GET /value?item= CC[C@H](C)[C@@H]1NC(=O)[C@H](CO)NC(=O)[C@H](CCCCN)NC(=O)[C@H]([C@@H](C)O)NC(=O)[C@H](Cc2c[nH]c3ccccc23)NC(=O)[C@@H](NC(=O)CNC(=O)[C@H](CCCNC(=N)N)NC(=O)[C@H](CC(C)C)NC(=O)[C@H](C)N)CSSC[C@@H](C(=O)N[C@@H](CCCCN)C(N)=O)NC(=O)[C@@H]2CCCN2C(=O)[C@H](CCCCN)NC(=O)[C@@H]2CCCN2C(=O)[C@@H]2CCCN2C1=O [K^16-PPF-BBI] (H-ALRGCWTKSIPPKPCK-NH2; disulfide 5-15) &field=MIC returns 128

###

System: E. coli (NCTC 10418)
Format: cell-based
Bridge positions count the residues as written; N and C are the ends. Peptide text beside a SMILES is read from it.
RESULT TYPE: MIC

GET /value?item= CC[C@H](C)[C@@H]1NC(=O)[C@H](CO)NC(=O)[C@H](Cc2ccccc2)NC(=O)[C@H]([C@@H](C)O)NC(=O)[C@H](Cc2c[nH]c3ccccc23)NC(=O)[C@@H](NC(=O)CNC(=O)[C@H](CCCNC(=N)N)NC(=O)[C@H](CC(C)C)NC(=O)[C@H](C)N)CSSC[C@@H](C(=O)N2CCC[C@H]2C(N)=O)NC(=O)[C@@H]2CCCN2C(=O)[C@H](CCCCN)NC(=O)[C@@H]2CCCN2C(=O)[C@@H]2CCCN2C1=O [F^8-PPF-BBI] (H-ALRGCWTFSIPPKPCP-NH2; disulfide 5-15) &field=MIC returns >512 µM

###

Tested on: S. aureus (NCTC 10788)
Format: cell-based
Bridge positions count the residues as written; N and C are the ends. Peptide text beside a SMILES is read from it.
RESULT TYPE: MBC (µM)
Note: unit µM is implicit; provide only the numeric part.

GET /value?item= CC[C@H](C)[C@@H]1NC(=O)[C@H](CO)NC(=O)[C@H](CCCCN)NC(=O)[C@H]([C@@H](C)O)NC(=O)[C@H](Cc2c[nH]c3ccccc23)NC(=O)[C@@H](NC(=O)CNC(=O)[C@H](CCCNC(=N)N)NC(=O)[C@H](CC(C)C)NC(=O)[C@H](C)N)CSSC[C@@H](C(=O)N[C@@H](CCCCN)C(N)=O)NC(=O)[C@@H]2CCCN2C(=O)[C@H](CCCCN)NC(=O)[C@@H]2CCCN2C(=O)[C@@H]2CCCN2C1=O [K^16-PPF-BBI] (H-ALRGCWTKSIPPKPCK-NH2; disulfide 5-15) &field=MBC returns 64

###

Test system: S. aureus (NCTC 10788)
Format: cell-based
Bridge positions count the residues as written; N and C are the ends. Peptide text beside a SMILES is read from it.
RESULT TYPE: MBC (µM)
Note: unit µM is implicit; provide only the numeric part.

GET /value?item= N=C(N)NCCC[C@H](NC(=O)[C@H](CCCNC(=N)N)NC(=O)[C@H](CCCNC(=N)N)NC(=O)[C@H](CCC(N)=O)NC(=O)[C@H](CCCNC(=N)N)NC(=O)[C@H](CCCNC(=N)N)NC(=O)[C@H](CCCCN)NC(=O)[C@H](CCCCN)NC(=O)[C@@H](N)CCCNC(=N)N)C(=O)O [Tat, reference compound] &field=MBC returns 512

GET /value?item= CC[C@H](C)[C@@H]1NC(=O)[C@H](CO)NC(=O)[C@H](CCCCN)NC(=O)[C@H]([C@@H](C)O)NC(=O)[C@H](Cc2c[nH]c3ccccc23)NC(=O)[C@@H](NC(=O)CNC(=O)[C@H](CCCNC(=N)N)NC(=O)[C@H](CC(C)C)NC(=O)[C@H](C)N)CSSC[C@@H](C(=O)N2CCC[C@H]2C(N)=O)NC(=O)[C@@H]2CCCN2C(=O)[C@H](CCCCN)NC(=O)[C@@H]2CCCN2C(=O)[C@@H]2CCCN2C1=O [PPF-BBI] (H-ALRGCWTKSIPPKPCP-NH2; disulfide 5-15) &field=MBC returns 128

###

Test system: C. albicans (NCYC 1467)
Assay type: cell-based
Bridge positions count the residues as written; N and C are the ends. Peptide text beside a SMILES is read from it.
RESULT TYPE: MBC (µM)
Note: unit µM is implicit; provide only the numeric part.

GET /value?item= CC[C@H](C)[C@@H]1NC(=O)[C@H](CO)NC(=O)[C@H](CCCCN)NC(=O)[C@H]([C@@H](C)O)NC(=O)[C@H](Cc2c[nH]c3ccccc23)NC(=O)[C@@H](NC(=O)CNC(=O)[C@H](CCCNC(=N)N)NC(=O)[C@H](CC(C)C)NC(=O)[C@H](C)N)CSSC[C@@H](C(=O)N[C@@H](CCCCN)C(N)=O)NC(=O)[C@@H]2CCCN2C(=O)[C@H](CCCCN)NC(=O)[C@@H]2CCCN2C(=O)[C@@H]2CCCN2C1=O [K^16-PPF-BBI] (H-ALRGCWTKSIPPKPCK-NH2; disulfide 5-15) &field=MBC returns 128

###

I'd be grateful if you could share measured MBC for these entries.
Test system: C. albicans (NCYC 1467)
Type: cell-based
Bridge positions count the residues as written; N and C are the ends. Peptide text beside a SMILES is read from it.

The compound CC[C@H](C)[C@@H]1NC(=O)[C@H](CO)NC(=O)[C@H](Cc2ccccc2)NC(=O)[C@H]([C@@H](C)O)NC(=O)[C@H](Cc2c[nH]c3ccccc23)NC(=O)[C@@H](NC(=O)CNC(=O)[C@H](CCCNC(=N)N)NC(=O)[C@H](CC(C)C)NC(=O)[C@H](C)N)CSSC[C@@H](C(=O)N2CCC[C@H]2C(N)=O)NC(=O)[C@@H]2CCCN2C(=O)[C@H](CCCCN)NC(=O)[C@@H]2CCCN2C(=O)[C@@H]2CCCN2C1=O [F^8-PPF-BBI] (H-ALRGCWTFSIPPKPCP-NH2; disulfide 5-15) , when measured on C. albicans (NCYC 1467), yielded MBC of >512 µM

The compound CC[C@H](C)[C@@H]1NC(=O)[C@H](CO)NC(=O)[C@H](CCCCN)NC(=O)[C@H]([C@@H](C)O)NC(=O)[C@H](Cc2c[nH]c3ccccc23)NC(=O)[C@@H](NC(=O)CNC(=O)[C@H](CCCNC(=N)N)NC(=O)[C@H](CC(C)C)NC(=O)[C@H](C)N)CSSC[C@@H](C(=O)N2CCC[C@H]2C(N)=O)NC(=O)[C@@H]2CCCN2C(=O)[C@H](CCCCN)NC(=O)[C@@H]2CCCN2C(=O)[C@@H]2CCCN2C1=O [PPF-BBI] (H-ALRGCWTKSIPPKPCP-NH2; disulfide 5-15) , when measured on C. albicans (NCYC 1467), yielded MBC of 512 µM

The compound CC[C@H](C)[C@@H]1NC(=O)[C@H](CO)NC(=O)[C@H](CCCCN)NC(=O)[C@H]([C@@H](C)O)NC(=O)[C@H](Cc2c[nH]c3ccccc23)NC(=O)[C@@H](N)CSSC[C@@H](C(=O)O)NC(=O)[C@@H]2CCCN2C(=O)[C@H](CCCCN)NC(=O)[C@@H]2CCCN2C(=O)[C@@H]2CCCN2C1=O [TIL, reference compound] , when measured on C. albicans (NCYC 1467), yielded MBC of >512 µM

The compound N=C(N)NCCC[C@H](NC(=O)[C@H](CCCNC(=N)N)NC(=O)[C@H](CCCNC(=N)N)NC(=O)[C@H](CCC(N)=O)NC(=O)[C@H](CCCNC(=N)N)NC(=O)[C@H](CCCNC(=N)N)NC(=O)[C@H](CCCCN)NC(=O)[C@H](CCCCN)NC(=O)[C@@H](N)CCCNC(=N)N)C(=O)O [Tat, reference compound] , when measured on C. albicans (NCYC 1467), yielded MBC of >512 µM
